// pEC50 lookup, one value per entry
System: HCV genotype 1b (Con1) replicon in HUH-7 cells
run-description: HCV replicon luciferase reporter assay, genotype 1b
Type: cell-based
stated-conditions: Hepatitis C virus, Huh-7, 72 h, HCV genotype 1b replicon luciferase, 3 days incubation, read-out: LE_1b (EC50, range)
pEC50: −log10 of the molar value.

Example entries begin here.
[2H]C([2H])([2H])Oc1cnc(O[C@@H]2C[C@H]3C(=O)N[C@]4(C(=O)NS(=O)(=O)C5(C)CC5)C[C@H]4/C=C\CC[C@@H](C)C[C@@H](C)[C@H](NC(=O)OC(C)(C)C(C)(F)F)C(=O)N3C2)c2ccccc12 = > 8.26
COc1cnc(O[C@@H]2C[C@H]3C(=O)N[C@]4(C(=O)NS(=O)(=O)C5(CO)CC5)C[C@H]4/C=C\CC[C@@H](C)C[C@@H](C)[C@H](N)C(=O)N3C2)c2ccccc12 = < 7.06
CC[C@@H]1C[C@H](C)CC/C=C\[C@@H]2C[C@@]2(C(=O)NS(=O)(=O)C2CC2)NC(=O)[C@@H]2C[C@@H](Oc3nc(-c4ccc(OC(C)C)cn4)cc4cc(OC)ccc34)CN2C(=O)[C@H]1NC(=O)OC(C)(C)C(F)(F)F = 8.30 to 9.00

# input Look at this compound and give its reported pEC50. COc1cc2ccccc2c(O[C@@H]2C[C@H]3C(=O)N[C@]4(C(=O)NS(=O)(=O)C5(C)CC5)C[C@H]4/C=C\CC[C@H](C)C[C@@H](C)[C@H](NC(=O)OC(C)(C)C)C(=O)N3C2)n1
# output > 8.26

# input Could you share which pEC50 value was measured for COc1cc2cc(F)ccc2c(O[C@@H]2C[C@H]3C(=O)N[C@]4(C(=O)NS(=O)(=O)C5(CF)CC5)C[C@H]4/C=C\CC[C@@H](C)C[C@@H](C)[C@H](NC(=O)OC(C)(C)C)C(=O)N3C2)n1 ?
# output 9.30 to 10.00

---

Tested on: HCV genotype 1b (Con1) replicon in HUH-7 cells
run-description: HCV replicon luciferase reporter assay, genotype 1b
Format: cell-based
stated-conditions: Hepatitis C virus, Huh-7, 72 h, HCV genotype 1b replicon luciferase, 3 days incubation, read-out: LE_1b (EC50, range)
pEC50: −log10 of the molar value.
measurement-type: pEC50

Look over these answered cases.
COc1ccc2c(O[C@@H]3C[C@H]4C(=O)N[C@]5(C(=O)NS(=O)(=O)C6(C)CC6)C[C@H]5/C=C\CC[C@@H](C)C[C@@H](C)[C@H](NC(=O)OC(C)(C)C)C(=O)N4C3)nc(OC(C)C)cc2c1 = 9.30 to 10.00
COc1cc2ccnc(O[C@@H]3C[C@H]4C(=O)N[C@]5(C(=O)NS(=O)(=O)C6(CF)CC6)C[C@H]5/C=C\CC[C@@H](C)C[C@@H](C)[C@H](NC(=O)C5(C(F)(F)F)CC5)C(=O)N4C3)c2cc1F = > 8.26
CC[C@@H]1C[C@@H](C)CC/C=C\[C@@H]2C[C@@]2(C(=O)NS(=O)(=O)C2(C)CC2)NC(=O)[C@@H]2C[C@@H](Oc3nccc4c5c(ccc34)OCCO5)CN2C(=O)[C@H]1NC(=O)OC(C)(C)C(C)(F)F = > 8.26

# input Param readout = pEC50; param system = HCV genotype 1b (Con1) replicon in HUH-7 cells; param query = CCCOc1cnc(O[C@@H]2C[C@H]3C(=O)N[C@]4(C(=O)NS(=O)(=O)C5CC5)C[C@H]4/C=C\CC[C@@H](C)C[C@@H](C)[C@H](NC(=O)O[C@@H]4C[C@@H]5C[C@@H]5C4)C(=O)N3C2)c2ccccc12 ; response: value
# output > 8.26

# input So what pEC50 did C[C@@H]1CC/C=C\[C@@H]2C[C@@]2(C(=O)NS(=O)(=O)C2CC2)NC(=O)[C@@H]2C[C@@H](Oc3ncc(OCC4CC4)c4ccccc34)CN2C(=O)[C@@H](NC(=O)CC(C)(C)C(F)(F)F)[C@H](C)C1 get with HCV genotype 1b (Con1) replicon in HUH-7 cells?
# output > 8.26

# input Fill in the recorded pEC50 for this molecule, with HCV genotype 1b (Con1) replicon in HUH-7 cells as test system: COc1ccc2c(O[C@@H]3C[C@H]4C(=O)N[C@]5(C(=O)NS(=O)(=O)C6CC6)C[C@H]5/C=C\CC[C@H](C)C[C@@H](C)[C@H](NC(=O)OC(C)(C)C)C(=O)N4C3)nc(-c3ccc(OC(C)C)cn3)cc2c1
# output > 8.26

# input Recall the recorded pEC50 for COc1ccc2c(O[C@@H]3C[C@H]4C(=O)N[C@]5(C(=O)NS(=O)(=O)C6(Cl)CC6)C[C@H]5/C=C\CC[C@@H](C)C[C@@H](C)[C@H](NC(=O)OC(C)(C)C)C(=O)N4C3)ncc(OC)c2c1 with HCV genotype 1b (Con1) replicon in HUH-7 cells and state it.
# output > 8.26

# input API: value(readout= pEC50, system= HCV genotype 1b (Con1) replicon in HUH-7 cells, query= COc1cc2cc(F)ccc2c(O[C@@H]2C[C@H]3C(=O)N[C@]4(C(=O)NS(=O)(=O)C5(CF)CC5)C[C@H]4/C=C\CC[C@@H](C)C[C@@H](C)[C@H](NC(=O)OC(C)(C)C(C)(F)F)C(=O)N3C2)n1 )
# output 9.30 to 10.00

---

Test system: HCV genotype 1b (Con1) replicon in HUH-7 cells
run-description: HCV replicon luciferase reporter assay, genotype 1b
Assay type: cell-based
stated-conditions: Hepatitis C virus, Huh-7, 72 h, HCV genotype 1b replicon luciferase, 3 days incubation, read-out: LE_1b (EC50, range)
measurement-type: EC50

Use these answered entries as a reference point.
COc1nnc(O[C@@H]2C[C@H]3C(=O)N[C@]4(C(=O)NS(=O)(=O)C5(C)CC5)C[C@H]4/C=C\CC[C@H](C)C[C@@H](C)[C@H](NC(=O)NC(C)(C)C)C(=O)N3C2)c2ccccc12 = 4.82 to 103 nM
CCCOc1cnc(O[C@@H]2C[C@H]3C(=O)N[C@]4(C(=O)NS(=O)(=O)C5(C)CC5)C[C@H]4/C=C\CC[C@@H](C)C[C@@H](C)[C@H](NC(=O)O[C@H](C)C(F)(F)F)C(=O)N3C2)c2ccccc12 = 4.82 to 103 nM
[2H]C([2H])([2H])Oc1cnc(O[C@@H]2C[C@H]3C(=O)N[C@]4(C(=O)NS(=O)(=O)C5(C)CC5)C[C@H]4/C=C\CC[C@H](C)C[C@@H](C)[C@H](NC(=O)NC(C)(C)C)C(=O)N3C2)c2ccccc12 = < 5.46 nM

# input Dear colleague, I am looking for the recorded EC50 of the following compound: CC[C@@H]1C[C@@H](C)CC/C=C\[C@@H]2C[C@@]2(C(=O)NS(=O)(=O)C2(C)CC2)NC(=O)[C@@H]2C[C@@H](Oc3nc(OC)cc4ccccc34)CN2C(=O)[C@H]1NC(=O)OC(C)(C)C
# output < 5.46 nM

# input # lookup: EC50 of CCCOc1cnc(O[C@@H]2C[C@H]3C(=O)N[C@]4(C(=O)NS(=O)(=O)C5(C)CC5)C[C@H]4/C=C\CC[C@@H](C)C[C@@H](C)[C@H](NC(=O)OCC4(C)CC4)C(=O)N3C2)c2ccccc12
# output < 5.46 nM

---

Items are presented alongside their recorded pEC50.
Test system: HCV genotype 1b (Con1) replicon in HUH-7 cells
run-description: HCV replicon luciferase reporter assay, genotype 1b
Type: cell-based
stated-conditions: Hepatitis C virus, Huh-7, 72 h, HCV genotype 1b replicon luciferase, 3 days incubation, read-out: LE_1b (EC50, range)
pEC50: −log10 of the molar value.

Solved entries:
COc1ccc2nc(C)c(O[C@@H]3C[C@H]4C(=O)N[C@]5(C(=O)NS(=O)(=O)C6(C)CC6)C[C@H]5/C=C\CC[C@@H](C)C[C@@H](C)[C@H](NC(=O)OC(C)(C)C)C(=O)N4C3)nc2c1 = > 8.26
[2H]C([2H])([2H])C(C)(OC(=O)N[C@@H]1C(=O)N2C[C@H](Oc3nccc4cc(OC)ccc34)CC2C(=O)N[C@]2(C(=O)NS(=O)(=O)C3(C)CC3)C[C@H]2/C=C\CC[C@@H](C)C[C@H]1C)C([2H])([2H])[2H] (some centres unmarked) = > 8.26
COc1cc2cc(-c3ccc(OC(C)C)cc3)nc(O[C@@H]3C[C@H]4C(=O)N[C@]5(C(=O)NS(=O)(=O)C6(C)CC6)C[C@H]5/C=C\CC[C@@H](C)C[C@@H](C)[C@H](NC(=O)OC(C)(C)C(F)(F)F)C(=O)N4C3)c2cc1F = > 8.26
CC[C@@H]1C[C@H](C)CC/C=C\[C@@H]2C[C@@]2(C(=O)NS(=O)(=O)C2(C)CC2)NC(=O)[C@@H]2C[C@@H](Oc3ncc(OC)c4ccc(F)cc34)CN2C(=O)[C@H]1NC(=O)OC(C)(C)C = > 8.26

# input Would you mind telling me what pEC50 value was observed for CC[C@@H]1C[C@H](C)CC/C=C\[C@@H]2C[C@@]2(C(=O)NS(=O)(=O)C2(CF)CC2)NC(=O)[C@@H]2C[C@@H](Oc3nccc4c5c(ccc34)OCCO5)CN2C(=O)[C@H]1NC(=O)OC(C)(C)C(C)(F)F ?
# output 8.30 to 9.00
